These entries and their values trace back to paper PMC12319374.

System: THP-1 cells
Protocol summary: Evaluation of cytotoxicity on THP-1 cells (MTS)
Type: cell-based, human
Measurement setup: 4 µM, 72 h, PMA-differentiated THP-1
Observation type: Cytotoxicity on THP‐1 (100, 20, 4 µM) (%)

structure_smiles_string=NCC(c1c[nH]c2cc(-c3ccc(F)cc3)ccc12)c1c[nH]c2cc(-c3ccc(F)cc3)ccc12 units=% measured=−33
structure_smiles_string=NCC(c1c[nH]c2cc(-c3cccc4[nH]ccc34)ccc12)c1c[nH]c2cc(-c3cccc4[nH]ccc34)ccc12 units=% measured=−16
structure_smiles_string=NCC(c1c[nH]c2cc(-c3cccc(OCc4ccccc4)c3)ccc12)c1c[nH]c2cc(-c3cccc(OCc4ccccc4)c3)ccc12 units=% measured=1
